# System: Escherichia coli TOP10;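 further: peptides expressed intracellularly from a pBAD plasmid library in pooled LB shake-flask culture, induced with 0.3% L-arabinose, DNA abundance read by NGS, three biological replicates, DESeq2 with apeglm shrinkage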
# experimentalProtocol: shrunken log2 fold change of peptide-encoding DNA abundance (4.5 h post-induction vs induction); higher = less antimicrobial activity (less host growth inhibition)
# assaySetup: time post-induction: 4.5 h; library: site-saturation at positions 5, 18, 19, 20
# label = fulfilled if shrunken log2 fold change >= -0.002 else not fulfilled

sequenceContent	labelClass
RRIRPRPPRLPRPRPRPVDFPRP	fulfilled
RRIRQRPPRLPRPRPRPDEPPRP	not fulfilled
RRIRCRPPRLPRPRPRPVMHPRP	not fulfilled
RRIRKRPPRLPRPRPRPHRYPRP	fulfilled
RRIRNRPPRLPRPRPRPMIIPRP	fulfilled
RRIRCRPPRLPRPRPRPQWKPRP	not fulfilled
RRIRQRPPRLPRPRPRPKHNPRP	not fulfilled
RRIRVRPPRLPRPRPRPVWYPRP	not fulfilled
RRIRQRPPRLPRPRPRPWAHPRP	not fulfilled
RRIRHRPPRLPRPRPRPLNQPRP	not fulfilled
RRIRDRPPRLPRPRPRPPMDPRP	fulfilled
RRIRKRPPRLPRPRPRPSEFPRP	fulfilled
RRIRCRPPRLPRPRPRPIVGPRP	not fulfilled
RRIRARPPRLPRPRPRPTNIPRP	not fulfilled
RRIRTRPPRLPRPRPRPSPVPRP	fulfilled
RRIRERPPRLPRPRPRPWCVPRP	not fulfilled
RRIRRRPPRLPRPRPRPRKHPRP	fulfilled
RRIRGRPPRLPRPRPRPFICPRP	fulfilled
RRIRKRPPRLPRPRPRPPLFPRP	fulfilled
RRIRGRPPRLPRPRPRPMIYPRP	fulfilled
RRIRNRPPRLPRPRPRPTQMPRP	fulfilled
RRIRDRPPRLPRPRPRPAVQPRP	not fulfilled
RRIRNRPPRLPRPRPRPPKMPRP	not fulfilled
RRIRFRPPRLPRPRPRPWQFPRP	not fulfilled
RRIRKRPPRLPRPRPRPNIIPRP	fulfilled
RRIRSRPPRLPRPRPRPQVNPRP	not fulfilled
RRIRSRPPRLPRPRPRPIHGPRP	not fulfilled
RRIRTRPPRLPRPRPRPLEQPRP	not fulfilled
RRIRKRPPRLPRPRPRPVVDPRP	not fulfilled
RRIRMRPPRLPRPRPRPVEVPRP	fulfilled
RRIRKRPPRLPRPRPRPAMIPRP	fulfilled
RRIRRRPPRLPRPRPRPVQWPRP	fulfilled
RRIRARPPRLPRPRPRPWQNPRP	fulfilled
RRIRFRPPRLPRPRPRPADPPRP	fulfilled
RRIRMRPPRLPRPRPRPGAHPRP	fulfilled
RRIRWRPPRLPRPRPRPCLSPRP	not fulfilled
RRIRTRPPRLPRPRPRPQMPPRP	fulfilled
RRIRHRPPRLPRPRPRPKEDPRP	fulfilled
RRIRHRPPRLPRPRPRPFYNPRP	not fulfilled
RRIRFRPPRLPRPRPRPASQPRP	not fulfilled
RRIRERPPRLPRPRPRPQYWPRP	not fulfilled
RRIRGRPPRLPRPRPRPTPRPRP	fulfilled
RRIRQRPPRLPRPRPRPGYIPRP	not fulfilled
RRIRNRPPRLPRPRPRPYTGPRP	not fulfilled
RRIRMRPPRLPRPRPRPMGCPRP	fulfilled
RRIRKRPPRLPRPRPRPFIRPRP	not fulfilled
RRIRLRPPRLPRPRPRPNFYPRP	not fulfilled
RRIRFRPPRLPRPRPRPRKVPRP	fulfilled
RRIRARPPRLPRPRPRPCWLPRP	fulfilled
RRIRLRPPRLPRPRPRPQHHPRP	not fulfilled
RRIRWRPPRLPRPRPRPPPRPRP	fulfilled
RRIRHRPPRLPRPRPRPQWSPRP	not fulfilled
RRIRYRPPRLPRPRPRPQSGPRP	not fulfilled
RRIRSRPPRLPRPRPRPMEVPRP	not fulfilled
RRIRFRPPRLPRPRPRPMSGPRP	not fulfilled
RRIRHRPPRLPRPRPRPQMFPRP	not fulfilled
RRIRYRPPRLPRPRPRPKQNPRP	not fulfilled
RRIRDRPPRLPRPRPRPKIGPRP	not fulfilled
RRIRDRPPRLPRPRPRPIWMPRP	not fulfilled
RRIRDRPPRLPRPRPRPYACPRP	fulfilled
RRIRLRPPRLPRPRPRPNHWPRP	fulfilled
RRIRWRPPRLPRPRPRPFCIPRP	not fulfilled
RRIRDRPPRLPRPRPRPNTNPRP	not fulfilled

Recorded values, source the supplement of paper PMC9112550.
